# targetDesc: Alpha glucosidase (Homo sapiens, UniProt O43451+P10253+P14410+Q2M2H8)
# assayProtocol: Inhibition of alpha-glucosidase (unknown origin) using p-nitro phenyl glucopyranoside as substrate preincubated for 10 mins followed by substrate addition measured after 10 mins
# Format: protein assay

structure: O=C1NC(=O)/C(=C\c2ccc(-n3ccc4c(Nc5ccc(F)cc5)ccnc43)cc2)S1
IC50: 550 to 35000 nM
--
structure: O=C1NC(=O)/C(=C\c2ccc(-n3cnc4ccccc43)cc2)S1
IC50: 550 to 35000 nM
--
structure: CCOC(=O)CN1C(=O)S/C(=C/c2ccc(-n3ccc4c(Br)ccnc43)cc2)C1=O
IC50: 550 nM
--
structure: O=C1NC(=O)/C(=C\c2ccc(-n3ccc4c(Nc5ccccc5OC(F)(F)F)ccnc43)cc2)S1
IC50: 550 to 35000 nM
--
structure: O=C1NC(=O)/C(=C\c2ccc(-n3ccc4c(Br)ccnc43)cc2)S1
IC50: 550 to 35000 nM

###

# assayProtocol: Inhibition of yeast alpha-glucosidase
# Set-up: species or system Saccharomyces cerevisiae
pIC50: −log10 of the molar value.
Reported pIC50 values for the following molecules.

molecule: Cc1cc2c(c(=O)[nH]1)C(=O)O/C2=C\c1cc(-c2ccccc2)cs1
pIC50: 5.08
//
molecule: CC(C)(C)c1ccc(COc2cccc(-c3cc(=O)c4ccccc4o3)c2)cc1
pIC50: 4.06 to 5.92
//
molecule: Cc1cc2c(c(=O)[nH]1)C(=O)O/C2=C\c1cccc(Br)c1
pIC50: 4.28 to 6.00
//
molecule: COc1ccc(/C=C/C(=O)C2=C(/C=C/c3ccc(OC)c(O)c3)Oc3[nH]c(=O)[nH]c(=O)c3C2c2ccccc2)cc1O (stereo not given)
pIC50: 3.92 to 4.01
//
molecule: N#Cc1cccc(COc2cccc(-c3cc(=O)c4ccccc4o3)c2)c1
pIC50: 4.06 to 5.92
//
molecule: Cc1cc2c(c(=O)[nH]1)C(=O)O/C2=C\c1ccc(F)c(F)c1
pIC50: 6.00
//
molecule: COc1ccc(/C=C/C(=O)C2=C(/C=C/c3ccc(OC)c(O)c3)Oc3[nH]c(=O)[nH]c(=O)c3C2c2ccc(Cl)cc2)cc1O (stereo not given)
pIC50: 3.92 to 4.01
//
molecule: O=c1cc(-c2cccc(OCc3cc(C(F)(F)F)ccc3C(F)(F)F)c2)oc2ccccc12
pIC50: 5.92
//
molecule: Cc1cccc(COc2cccc(-c3cc(=O)c4ccccc4o3)c2)c1
pIC50: 4.06 to 5.92
//
molecule: Cc1cc2c(c(=O)[nH]1)C(=O)O/C2=C\c1ccccc1C(F)(F)F
pIC50: 4.28 to 6.00

###

# targetDesc: Alpha glucosidase (Homo sapiens, UniProt O43451+P10253+P14410+Q2M2H8)
# assayProtocol: Inhibition of alpha-glucosidase (unknown origin) using p-nitrophenyl-alpha-d-glucopyranoside as substrate preincubated for 15 mins followed by substrate addition measured after 30 mins
# Type: protein assay

compound: CN1C(=O)/C(=N\Nc2nc(-c3ccc(F)cc3)cs2)c2ccccc21
targetDesc: Alpha glucosidase (Homo sapiens, UniProt O43451+P10253+P14410+Q2M2H8)
IC50: 5.3 to 35 µM

compound: Cc1ccc(C(c2c[nH]c3ccc(C(=O)NNS(=O)(=O)c4ccc(Cl)c(Cl)c4)cc23)c2c[nH]c3ccc(C(=O)NNS(=O)(=O)c4ccc(Cl)c(Cl)c4)cc23)cc1
targetDesc: Alpha glucosidase (Homo sapiens, UniProt O43451+P10253+P14410+Q2M2H8)
IC50: 0.1 to 5.1 µM

compound: O=C1Nc2ccccc2C1(c1cn(Cc2ccccc2Cl)c2ccccc12)c1cn(Cc2ccccc2Cl)c2ccccc12
targetDesc: Alpha glucosidase (Homo sapiens, UniProt O43451+P10253+P14410+Q2M2H8)
IC50: 5.9 to 145 µM

compound: Cc1ccc(-c2csc(N/N=C3\C(=O)N(Cc4ccccc4F)c4ccc(C)cc43)n2)cc1
targetDesc: Alpha glucosidase (Homo sapiens, UniProt O43451+P10253+P14410+Q2M2H8)
IC50: 5.3 to 35 µM

compound: Cc1ccc(C(c2c[nH]c3ccc(C(=O)NNS(=O)(=O)c4ccccc4Br)cc23)c2c[nH]c3ccc(C(=O)NNS(=O)(=O)c4ccccc4Br)cc23)cc1
targetDesc: Alpha glucosidase (Homo sapiens, UniProt O43451+P10253+P14410+Q2M2H8)
IC50: 0.1 to 5.1 µM

compound: O=C(CSc1nnc(-c2ccc(Br)cc2)c(-c2ccc(Br)cc2)n1)Nc1nc(-c2ccc(F)cc2)cs1
targetDesc: Alpha glucosidase (Homo sapiens, UniProt O43451+P10253+P14410+Q2M2H8)
IC50: 2.8 to 14 µM

compound: Cc1ccc(C(c2c[nH]c3ccc(C(=O)NNS(=O)(=O)c4ccc([N+](=O)[O-])cc4[N+](=O)[O-])cc23)c2c[nH]c3ccc(C(=O)NNS(=O)(=O)c4ccc([N+](=O)[O-])cc4[N+](=O)[O-])cc23)cc1
targetDesc: Alpha glucosidase (Homo sapiens, UniProt O43451+P10253+P14410+Q2M2H8)
IC50: 0.5 µM

compound: Cc1ccc(-c2csc(N/N=C3\C(=O)N(C)c4ccccc43)n2)cc1
targetDesc: Alpha glucosidase (Homo sapiens, UniProt O43451+P10253+P14410+Q2M2H8)
IC50: 5.3 to 35 µM

compound: O=C1Nc2ccccc2C1(c1cn(Cc2ccc(Br)cc2)c2ccccc12)c1cn(Cc2ccc(Br)cc2)c2ccccc12
targetDesc: Alpha glucosidase (Homo sapiens, UniProt O43451+P10253+P14410+Q2M2H8)
IC50: 5.9 to 145 µM

compound: COc1ccc(-c2csc(NC(=O)CSc3nnc(-c4ccc(Br)cc4)c(-c4ccc(Br)cc4)n3)n2)cc1
targetDesc: Alpha glucosidase (Homo sapiens, UniProt O43451+P10253+P14410+Q2M2H8)
IC50: 2.8 µM

compound: Cc1ccc(C(c2c[nH]c3ccc(C(=O)NNS(=O)(=O)c4ccc(Br)cc4)cc23)c2c[nH]c3ccc(C(=O)NNS(=O)(=O)c4ccc(Br)cc4)cc23)cc1
targetDesc: Alpha glucosidase (Homo sapiens, UniProt O43451+P10253+P14410+Q2M2H8)
IC50: 0.1 to 5.1 µM

compound: O=C1Nc2ccccc2/C1=N/Nc1nc(-c2ccc(F)cc2)cs1
targetDesc: Alpha glucosidase (Homo sapiens, UniProt O43451+P10253+P14410+Q2M2H8)
IC50: 5.3 to 35 µM

compound: COC(=O)c1cn(C[C@@H](C)Oc2ccc(Br)cc2OC)nn1
targetDesc: Alpha glucosidase (Homo sapiens, UniProt O43451+P10253+P14410+Q2M2H8)
IC50: 14 to 218 µM

compound: Cc1ccc2c(c1)/C(=N/Nc1nc(-c3ccc(O)cc3)cs1)C(=O)N2
targetDesc: Alpha glucosidase (Homo sapiens, UniProt O43451+P10253+P14410+Q2M2H8)
IC50: 5.3 to 35 µM

compound: CCCCn1cc(C2(c3cn(CCCC)c4ccccc34)C(=O)Nc3ccccc32)c2ccccc21
targetDesc: Alpha glucosidase (Homo sapiens, UniProt O43451+P10253+P14410+Q2M2H8)
IC50: 5.9 to 145 µM

compound: O=C1Nc2ccccc2C1(c1cn(Cc2ccccc2)c2ccccc12)c1cn(Cc2ccccc2)c2ccccc12
targetDesc: Alpha glucosidase (Homo sapiens, UniProt O43451+P10253+P14410+Q2M2H8)
IC50: 5.9 to 145 µM

compound: Cc1ccc(C(c2c[nH]c3ccc(C(=O)NNS(=O)(=O)c4cc(Cl)c(Cl)cc4Cl)cc23)c2c[nH]c3ccc(C(=O)NNS(=O)(=O)c4cc(Cl)c(Cl)cc4Cl)cc23)cc1
targetDesc: Alpha glucosidase (Homo sapiens, UniProt O43451+P10253+P14410+Q2M2H8)
IC50: 0.3 to 2.5 µM

compound: O=C1Nc2ccc(Br)cc2C1(c1c[nH]c2ccccc12)c1c[nH]c2ccccc12
targetDesc: Alpha glucosidase (Homo sapiens, UniProt O43451+P10253+P14410+Q2M2H8)
IC50: 5.9 to 145 µM

compound: Cc1ccc(C(c2c[nH]c3ccc(C(=O)NNS(=O)(=O)c4ccc([N+](=O)[O-])cc4)cc23)c2c[nH]c3ccc(C(=O)NNS(=O)(=O)c4ccc([N+](=O)[O-])cc4)cc23)cc1
targetDesc: Alpha glucosidase (Homo sapiens, UniProt O43451+P10253+P14410+Q2M2H8)
IC50: 2.1 µM

compound: O=C1Nc2ccccc2C1(c1cn(Cc2ccccc2F)c2ccccc12)c1cn(Cc2ccccc2F)c2ccccc12
targetDesc: Alpha glucosidase (Homo sapiens, UniProt O43451+P10253+P14410+Q2M2H8)
IC50: 5.9 µM

compound: Cc1ccc(-c2csc(N/N=C3\C(=O)Nc4ccc(F)cc43)n2)cc1
targetDesc: Alpha glucosidase (Homo sapiens, UniProt O43451+P10253+P14410+Q2M2H8)
IC50: 5.3 to 35 µM

compound: COc1cc(Br)ccc1O[C@H](C)Cn1cc(-c2ccc(C(F)(F)F)cc2)nn1
targetDesc: Alpha glucosidase (Homo sapiens, UniProt O43451+P10253+P14410+Q2M2H8)
IC50: 14 to 218 µM

compound: O=C(CSc1nnc(-c2ccc(F)cc2)c(-c2ccc(F)cc2)n1)Nc1nc(-c2ccc(Br)cc2)cs1
targetDesc: Alpha glucosidase (Homo sapiens, UniProt O43451+P10253+P14410+Q2M2H8)
IC50: 2.8 to 14 µM

compound: Cc1cc(C)c2c(c1)/C(=N/Nc1nc(-c3ccc(Br)cc3)cs1)C(=O)N2
targetDesc: Alpha glucosidase (Homo sapiens, UniProt O43451+P10253+P14410+Q2M2H8)
IC50: 5.3 to 35 µM

compound: COc1ccc(-c2csc(N/N=C3\C(=O)N(Cc4ccccc4F)c4ccc(C)cc43)n2)cc1
targetDesc: Alpha glucosidase (Homo sapiens, UniProt O43451+P10253+P14410+Q2M2H8)
IC50: 5.3 to 35 µM

compound: O=c1oc2ccccc2cc1OCC(O)CSc1nnc(-c2ccc(F)cc2)c(-c2ccc(F)cc2)n1 (configuration not stated)
targetDesc: Alpha glucosidase (Homo sapiens, UniProt O43451+P10253+P14410+Q2M2H8)
IC50: 32 to 148 µM

compound: Cc1ccc(C(c2c[nH]c3ccc(C(=O)NNS(=O)(=O)c4cc(Cl)ccc4Cl)cc23)c2c[nH]c3ccc(C(=O)NNS(=O)(=O)c4cc(Cl)ccc4Cl)cc23)cc1
targetDesc: Alpha glucosidase (Homo sapiens, UniProt O43451+P10253+P14410+Q2M2H8)
IC50: 0.1 to 5.1 µM

compound: COc1ccc(-c2csc(NC(=O)CSc3nnc(-c4ccccc4)c(-c4ccccc4)n3)n2)cc1
targetDesc: Alpha glucosidase (Homo sapiens, UniProt O43451+P10253+P14410+Q2M2H8)
IC50: 2.8 to 14 µM

compound: O=C1Nc2ccccc2C1(c1c[nH]c2ccccc12)c1c[nH]c2ccccc12
targetDesc: Alpha glucosidase (Homo sapiens, UniProt O43451+P10253+P14410+Q2M2H8)
IC50: 5.9 to 145 µM

compound: O=C(CSc1nnc(-c2ccccc2)c(-c2ccccc2)n1)Nc1nc(-c2ccc(Br)cc2)cs1
targetDesc: Alpha glucosidase (Homo sapiens, UniProt O43451+P10253+P14410+Q2M2H8)
IC50: 2.8 to 14 µM

compound: O=c1oc2ccccc2cc1OCC(O)CSc1nnc(-c2ccco2)c(-c2ccco2)n1 (configuration not stated)
targetDesc: Alpha glucosidase (Homo sapiens, UniProt O43451+P10253+P14410+Q2M2H8)
IC50: 32 to 148 µM

compound: Cc1ccc(C(c2c[nH]c3ccc(C(=O)NNS(=O)(=O)c4ccccc4Cl)cc23)c2c[nH]c3ccc(C(=O)NNS(=O)(=O)c4ccccc4Cl)cc23)cc1
targetDesc: Alpha glucosidase (Homo sapiens, UniProt O43451+P10253+P14410+Q2M2H8)
IC50: 0.1 to 5.1 µM

Data credit: ChEMBL document CHEMBL4304757
